- STUDY TARGET: Arginase-2, mitochondrial (Homo sapiens)
- ASSAY COMMENT: in vitro enzyme assay to detect the production of urea directly proportional to the activity of Arginase II; also: in the data most compounds retested in dose-response had high values
- Type: functional
- Design: scale not given: direction of the effect not stated beside the values
- TEST SETTINGS: 33.3 µM
MEASURED PROPERTY: Percent Effect (%)
Write down the numeric answer in % and omit the unit.

Worked cases, Percent Effect given:
CCOc1ccc(C#N)cc1NCC(=O)Nc1cc(C)no1 | -7.99
CCC1CN(CC(=O)N2CCC2)CCN1CCOC (configuration not stated) | -8.82
Cc1cccc(CN2C[C@@H]3CN(C(=O)c4ccsc4)C[C@@H]3C2=O)c1 | 0

Percent Effect recorded for this compound, Cc1cc(CN(C)C(=O)c2cccc(N3CCCC3=O)c2)no1 , is -0.76

compound CC(=O)Nc1nc(CN2CCCCC2Cn2cccn2)cs1 (configuration not stated) , Percent Effect observed: -1.18

---

- STUDY TARGET: Proteasome subunit beta (Trypanosoma cruzi)
- ASSAY COMMENT: Trypanosoma cruzi proteasome chymotrypsin-like activity (TcProtChymo) assay. Also: in the data most compounds retested in dose-response had high values.
- Type: functional
- Set-up: scale not given: direction of the effect not stated beside the values
- TEST SETTINGS: 9.37 µM
MEASURED PROPERTY: Percent Effect (%)
Report the figure in % without appending any unit label.

CCc1nccn1C1CCCN(C(=O)c2ccc(C(=O)NC)nc2)C1 (configuration not stated) | 1.86
Cc1cc(NC(=O)CCc2ccsc2)n(C)n1 | 17.7
CN(C)c1ncnc2c1CCN(CC1CCCC1)CC2 | 15.1

compound Cc1nnc(N2CCOC(Cn3cccn3)C2)c(C#N)c1C (configuration not stated) , Percent Effect observed: -0.334

The recorded Percent Effect for CN(Cc1cccc(F)c1)S(=O)(=O)N1CCOCC1 is 24.4

Just so you know, measured Percent Effect for O=C(CCCOc1ccc(F)cc1)N1CCCC(n2cccn2)C1 (configuration not stated) came out at 6.71

---

- STUDY TARGET: Chromo domain-containing protein 1 (Saccharomyces cerevisiae (strain ATCC 204508 / S288c) (Baker's yeast)) (UniProt P32657)
- Sequence (P32657 whole entry, the tested form may be a part): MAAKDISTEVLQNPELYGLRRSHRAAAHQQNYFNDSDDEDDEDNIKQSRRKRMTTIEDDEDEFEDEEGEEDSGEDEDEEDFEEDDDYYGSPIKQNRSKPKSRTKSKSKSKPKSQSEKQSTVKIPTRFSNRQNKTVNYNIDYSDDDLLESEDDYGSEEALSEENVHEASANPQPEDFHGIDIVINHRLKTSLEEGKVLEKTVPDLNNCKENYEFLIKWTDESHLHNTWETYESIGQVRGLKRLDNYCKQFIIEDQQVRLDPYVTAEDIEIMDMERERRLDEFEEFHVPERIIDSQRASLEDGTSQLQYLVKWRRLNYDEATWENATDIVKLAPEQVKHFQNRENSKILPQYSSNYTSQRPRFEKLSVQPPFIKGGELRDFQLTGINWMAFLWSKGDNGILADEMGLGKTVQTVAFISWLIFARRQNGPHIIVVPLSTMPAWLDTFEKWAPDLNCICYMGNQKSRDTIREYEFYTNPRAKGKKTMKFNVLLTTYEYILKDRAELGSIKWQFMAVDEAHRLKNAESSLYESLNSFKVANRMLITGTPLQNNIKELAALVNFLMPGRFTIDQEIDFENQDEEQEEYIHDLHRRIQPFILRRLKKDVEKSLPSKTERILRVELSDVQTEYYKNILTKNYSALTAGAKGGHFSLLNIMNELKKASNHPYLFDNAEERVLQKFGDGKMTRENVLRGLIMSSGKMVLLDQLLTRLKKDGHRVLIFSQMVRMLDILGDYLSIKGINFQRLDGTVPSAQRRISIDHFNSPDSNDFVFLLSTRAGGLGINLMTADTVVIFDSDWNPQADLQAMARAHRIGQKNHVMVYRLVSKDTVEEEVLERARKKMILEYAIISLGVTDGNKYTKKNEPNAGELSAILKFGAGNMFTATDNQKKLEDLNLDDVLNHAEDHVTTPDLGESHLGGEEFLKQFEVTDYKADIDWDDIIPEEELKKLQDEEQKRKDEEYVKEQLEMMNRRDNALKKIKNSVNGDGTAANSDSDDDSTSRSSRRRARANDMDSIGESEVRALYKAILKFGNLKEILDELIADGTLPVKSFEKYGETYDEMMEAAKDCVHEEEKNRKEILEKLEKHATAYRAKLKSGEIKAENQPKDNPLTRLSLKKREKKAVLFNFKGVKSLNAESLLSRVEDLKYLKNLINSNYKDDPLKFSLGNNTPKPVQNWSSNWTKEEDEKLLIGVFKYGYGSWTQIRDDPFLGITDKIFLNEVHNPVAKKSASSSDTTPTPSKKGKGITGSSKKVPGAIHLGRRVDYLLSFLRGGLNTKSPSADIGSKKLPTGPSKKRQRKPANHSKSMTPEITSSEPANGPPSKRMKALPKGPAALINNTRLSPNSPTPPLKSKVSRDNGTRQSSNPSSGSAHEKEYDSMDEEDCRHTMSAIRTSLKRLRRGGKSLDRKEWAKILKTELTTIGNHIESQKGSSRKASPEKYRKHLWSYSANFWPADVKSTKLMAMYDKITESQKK
- ASSAY COMMENT: ScCHD-1 Enzyme Inhibition Assay; also: in the data most compounds retested in dose-response had high values
- Type: functional
- Set-up: scale not given: direction of the effect not stated beside the values
- TEST SETTINGS: 30 µM
In this section, each of the compounds is paired with its reported Percent Effect.
Number in %, nothing else.

CCCn1[nH]cc/c1=N\C(=O)CN1CCCC1c1c(C)nn(C)c1C (stereo unspecified) | -10.6
CCc1nc(CN(C)CC2CCN(CCO)CC2)no1 | -0.692
Cc1cnn(CCNCC(O)COc2c(C)ccc(C)c2C)c1 (stereo unspecified) | -4.18
COc1ccc(OC)c(CN2CCCCCC2c2cccs2)c1 (stereo unspecified) | -9.84
CC(C)[C@H](NC(=O)NC1CCS(=O)(=O)C1)C(=O)NCc1cccnc1 (stereo partly specified) | 1.13

Next compound, please.
For reference, reported Percent Effect for Cn1cc(CCNC(=O)NCc2nnc3n2CCC3)cn1 stands at -6.44

---

- STUDY TARGET: AMP-activated protein kinase, AMPK (Homo sapiens) (UniProt P54646+O43741+P54619+Q9UGJ0+Q9Y478+Q13131+Q9UGI9)
- ASSAY COMMENT: AMP-dependent Kinase enzyme assay. An in vitro enzyme assay that detects ADP turnover that is directly proportional to AMPK activity. This uses naive AMPK that is activated during the assay with MK-8722
- Type: functional
- Parameters: scale not given: direction of the effect not stated beside the values
- TEST SETTINGS: 30 µM
MEASURED PROPERTY: Percent Effect (%)
# output: bare number, implied unit %

CCc1nc(C2CCCN2CC(=O)Nc2sc(C)c(C)c2C)no1 (stereo not drawn) | 3.9

So, COc1ccccc1CN1C(=O)O[C@@H]2CN(c3nccs3)C[C@@H]21 ? Its Percent Effect was 2

Value of Percent Effect reported for the molecule O=C(CN1CCCCC1Cn1cccn1)NC1CCN(C2CC2)CC1 (stereo not drawn) is -4.99

Percent Effect measured on CC(c1ccccc1)n1c(SCC(=O)O)nnc1-c1ccccc1Cl (stereo not drawn) = -8.09

Looking up Cc1nccc([C@@H]2C[C@@H]3CCN(S(C)(=O)=O)C[C@H]3O2)n1 , I found its Percent Effect recorded as -5.02

Note to self: Percent Effect recorded for Cc1cc(C)n(CC2CCCCN2CC(=O)Nc2cccnc2)n1 (stereo not drawn) was -13.7

---

Item-by-item account of Percent Effect
- STUDY TARGET: Protein translocase subunit SecA (Escherichia coli (strain K12)) (UniProt P10408)
- Sequence (P10408 whole entry): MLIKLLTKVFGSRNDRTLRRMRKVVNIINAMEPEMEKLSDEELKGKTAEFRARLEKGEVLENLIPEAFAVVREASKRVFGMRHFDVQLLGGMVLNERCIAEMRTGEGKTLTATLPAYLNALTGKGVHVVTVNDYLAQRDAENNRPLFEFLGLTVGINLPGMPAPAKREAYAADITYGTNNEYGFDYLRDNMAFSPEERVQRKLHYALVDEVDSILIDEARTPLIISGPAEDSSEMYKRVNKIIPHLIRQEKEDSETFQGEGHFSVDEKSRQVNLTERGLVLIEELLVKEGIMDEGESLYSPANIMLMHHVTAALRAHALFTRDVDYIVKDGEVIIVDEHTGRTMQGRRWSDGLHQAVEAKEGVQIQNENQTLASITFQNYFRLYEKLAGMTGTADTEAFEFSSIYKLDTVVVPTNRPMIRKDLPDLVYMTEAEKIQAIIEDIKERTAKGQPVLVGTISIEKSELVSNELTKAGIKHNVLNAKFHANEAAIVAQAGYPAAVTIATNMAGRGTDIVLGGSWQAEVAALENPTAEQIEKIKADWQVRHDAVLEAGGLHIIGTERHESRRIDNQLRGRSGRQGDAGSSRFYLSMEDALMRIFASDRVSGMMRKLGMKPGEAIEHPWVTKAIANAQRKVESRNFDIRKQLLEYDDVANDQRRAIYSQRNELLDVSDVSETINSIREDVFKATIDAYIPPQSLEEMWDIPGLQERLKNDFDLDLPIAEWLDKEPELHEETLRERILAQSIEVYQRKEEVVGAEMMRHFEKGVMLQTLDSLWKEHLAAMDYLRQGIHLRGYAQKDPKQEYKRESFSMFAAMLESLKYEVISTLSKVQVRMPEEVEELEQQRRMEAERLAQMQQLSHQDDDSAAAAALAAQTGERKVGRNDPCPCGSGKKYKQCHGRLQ
- ASSAY COMMENT: Assay to Identify E. coli SecA ATPase Inhibitors
- Assay type: functional
- Design: scale not given: direction of the effect not stated beside the values
- TEST SETTINGS: 30 µM
Results with a measured potency or affinity are listed apart.
Report as a plain number; the unit % is understood.

// recorded Percent Effect for CCn1ncnc1C(C)NC(=O)C1CCN(C(C)C)CC1 (stereo unspecified) : -3.72

get_value(item= Cc1cnc(C(=O)N2CCCN(Cc3csc(C)n3)CC2)cn1 , readout=Percent Effect) returns -5.93

get_value(item= CC(O)CN1CCN(C(=O)c2cc3ccccc3c(=O)[nH]2)CC1 (stereo unspecified) , readout=Percent Effect) returns -0.781

GET /value?item= CC(C)OCCOCc1cccc(NC(=O)NCc2ccccn2)c1 &field=Percent Effect returns -5.4

Query Cc1nc(C)c(CC(=O)N2C[C@H]3CC[C@@H]2CN(C(=O)N(C)C)C3)c(=O)[nH]1 yields Percent Effect of -12.8

GET /value?item= O=C1CC2(CCN(c3nncs3)C2)CN1c1ccccc1 (stereo unspecified) &field=Percent Effect returns -2.98

---

- STUDY TARGET: AMP-activated protein kinase, AMPK (Homo sapiens) (UniProt P54646+O43741+P54619+Q9UGJ0+Q9Y478+Q13131+Q9UGI9)
- ASSAY COMMENT: AMP-dependent Kinase enzyme assay. An in vitro enzyme assay that detects ADP turnover that is directly proportional to AMPK activity. This uses naive AMPK that is activated during the assay with MK-8722
- Assay type: functional
- Parameters: scale not given: direction of the effect not stated beside the values
- TEST SETTINGS: 30 µM
Reported Percent Effect values follow for various compounds
Supply the numeric figure in %, leaving out any unit text.

CCc1nc(CC(=O)N2CCn3c(nnc3C(C)C)C2)cs1 | 1.23
CC(OCC(F)(F)F)C(=O)NCc1ccc(-n2cncn2)nc1 (stereo unspecified) | 0.466
Cc1nccn1-c1cc(CNC(=O)C(C)(C)C)ccn1 | 4.7

Recorded Percent Effect (compound CCc1nc2n(n1)CC(NCc1ccnc(-c3ccccc3)n1)CC2 (stereo unspecified) ): -2.11

Value of measured Percent Effect for the entry Cn1cc(C[C@H]2[C@@H](O)CCN2C(=O)C2CC=CC2)cn1 : 8.48

Input CCCc1noc(CN(C)C(=O)C2COc3ccccc3C2)n1 (stereo unspecified) . Output Percent Effect: -0.0483

---

- STUDY TARGET: Chromo domain-containing protein 1 (Saccharomyces cerevisiae (strain ATCC 204508 / S288c) (Baker's yeast)) (UniProt P32657)
- ASSAY COMMENT: ScCHD-1 Enzyme Inhibition Assay; also: in the data most compounds retested in dose-response had high values
- Assay type: functional
- Parameters: scale not given: direction of the effect not stated beside the values
- TEST SETTINGS: 30 µM
Some compounds, each annotated with its measured Percent Effect.
Report as a plain number; the unit % is understood.

Worked cases, Percent Effect given:
N#Cc1ccnc(N2CCN(CC(O)c3cccc(F)c3)CC2)c1 (stereo not drawn) | -2.53
CC(C(=O)NCc1ccnc(N(C)C)c1)n1cncn1 (stereo not drawn) | -3.72
CC(=O)N1CCN(Cc2nnc(C(C)(C)C)o2)CC1 | -3.99
COC(=O)c1cccc(C(=O)N2CCN(c3cccc(C)c3C)CC2)n1 | -9.48
COCCN(Cc1ccc(F)cc1Cl)C(=O)c1ccncc1 | -1.32
Cc1cc(C2CCCN2C(=O)NCc2cccc(F)c2)on1 (stereo not drawn) | -5.2
CC(C)N1CCc2c(C#N)c(NCc3ccco3)n3cnnc3c2C1 | -9.63
CCc1ccc(CN2CCCC(CO)(CCOC)C2)cc1 (stereo not drawn) | 1.15

Proceeding to the next compound to report its Percent Effect.
The reported value for COc1cccc(CN(C)S(=O)(=O)N2CCOCC2)c1 in terms of Percent Effect is -6.9

---

- STUDY TARGET: Tyrosyl-tRNA synthetase, putative (Trypanosoma cruzi (strain CL Brener)) (UniProt Q4DSP6)
- Sequence (Q4DSP6 as listed by the source): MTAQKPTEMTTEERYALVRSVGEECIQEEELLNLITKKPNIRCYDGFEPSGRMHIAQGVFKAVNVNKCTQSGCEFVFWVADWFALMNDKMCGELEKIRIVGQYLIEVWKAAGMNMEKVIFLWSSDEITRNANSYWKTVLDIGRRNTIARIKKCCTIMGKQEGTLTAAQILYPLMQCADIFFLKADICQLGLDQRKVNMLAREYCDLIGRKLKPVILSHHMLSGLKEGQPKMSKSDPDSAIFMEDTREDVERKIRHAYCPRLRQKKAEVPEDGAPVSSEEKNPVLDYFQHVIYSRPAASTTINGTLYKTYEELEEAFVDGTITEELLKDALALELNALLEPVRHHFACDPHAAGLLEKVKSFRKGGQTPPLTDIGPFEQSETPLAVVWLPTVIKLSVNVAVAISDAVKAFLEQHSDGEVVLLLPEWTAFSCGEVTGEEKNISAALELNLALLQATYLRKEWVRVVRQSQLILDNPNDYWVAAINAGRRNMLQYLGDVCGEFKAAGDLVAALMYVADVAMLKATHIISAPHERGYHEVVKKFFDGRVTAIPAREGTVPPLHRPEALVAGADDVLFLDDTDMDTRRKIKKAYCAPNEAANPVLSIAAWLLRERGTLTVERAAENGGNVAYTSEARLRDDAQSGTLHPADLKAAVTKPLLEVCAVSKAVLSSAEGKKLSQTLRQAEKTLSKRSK
- ASSAY COMMENT: Trypanosoma cruzi tyrosyl tRNA synthetase (TcYRS) _High Tyrosine SOP; also: in the data most compounds retested in dose-response had high values
- Type: functional
- Parameters: scale not given: direction of the effect not stated beside the values
- TEST SETTINGS: 30 µM
As shown below, each of these molecules has a reported Percent Effect value.
The reply should be a number in %, with the unit left off.

Reference set, count: 3
CN(C)CCNC(=O)c1ccc(OC2CCN(S(C)(=O)=O)CC2)c(Cl)c1 | 7.53
COC(=O)c1ccc(C(=O)NS(=O)(=O)c2cncc(Br)c2)cc1 | -0.529
O=C(CCc1cccs1)N1CCCCC1Cn1cccn1 (centres undefined) | 5.71

Record CCN(CC(=O)NC(C)C)S(=O)(=O)N1CCC(C)C1 (centres undefined) . Reported Percent Effect: 1.07

Note to self: Percent Effect recorded for CNC(=O)CSc1nc2c(cnn2Cc2ccc(F)cc2)c(=O)[nH]1 was 0

The molecule listed as O=C(c1ccccn1)N1CCc2c(nc(N3CCCC3)[nH]c2=O)C1 has a reported Percent Effect of 3.23

# Percent Effect (molecule: O=S(=O)(C1CC1)N1CC[C@]2(C[C@@H](Oc3ccccn3)CO2)C1 ) is 0

What the record says about O=C1NCCCCC1Sc1nnc(C2CC2)n1C1CC1 (centres undefined) : Percent Effect is 5.38
